- SYSTEM_UNDER_TEST: T1, human TNFR2 on the cell surface (CHO-TNFR2 cells; human Treg cells) (human, UniProt P20333 23-461); note: test concentration or dose not given here
- T1 sequence (looked up): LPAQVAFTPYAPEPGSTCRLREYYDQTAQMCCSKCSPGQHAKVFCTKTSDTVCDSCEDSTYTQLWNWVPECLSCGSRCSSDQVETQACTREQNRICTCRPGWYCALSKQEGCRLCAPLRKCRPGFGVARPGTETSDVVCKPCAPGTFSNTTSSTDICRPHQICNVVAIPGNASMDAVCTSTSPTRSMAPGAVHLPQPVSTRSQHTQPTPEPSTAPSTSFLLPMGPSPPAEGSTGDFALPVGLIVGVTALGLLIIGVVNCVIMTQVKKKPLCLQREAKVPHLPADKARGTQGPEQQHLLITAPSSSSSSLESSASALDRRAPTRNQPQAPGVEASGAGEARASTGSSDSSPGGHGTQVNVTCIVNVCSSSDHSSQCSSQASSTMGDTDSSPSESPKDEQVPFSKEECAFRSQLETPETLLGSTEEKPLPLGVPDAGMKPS
- TEST_SUMMARY: cell-based or functional assay
METRIC_NAME: proliferation inhibition (TNFα-induced Treg cell proliferation, against anti-Hel)

Reference set (2 entries):
BINDER: TNFR2 antibody #226 (antibody, V domains shown) VH: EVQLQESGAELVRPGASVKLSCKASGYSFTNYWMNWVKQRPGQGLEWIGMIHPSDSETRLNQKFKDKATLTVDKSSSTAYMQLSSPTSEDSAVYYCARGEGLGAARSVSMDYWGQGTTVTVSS VL: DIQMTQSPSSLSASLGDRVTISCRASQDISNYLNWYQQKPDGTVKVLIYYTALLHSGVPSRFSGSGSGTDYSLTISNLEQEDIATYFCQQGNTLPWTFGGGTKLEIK
MEASURED: 10.3%

BINDER: TNFR2 antibody #088 (antibody, V domains shown) VH: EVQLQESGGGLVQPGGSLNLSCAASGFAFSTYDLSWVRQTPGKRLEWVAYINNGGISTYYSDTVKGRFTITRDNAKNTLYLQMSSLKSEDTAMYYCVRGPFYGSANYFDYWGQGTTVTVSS VL: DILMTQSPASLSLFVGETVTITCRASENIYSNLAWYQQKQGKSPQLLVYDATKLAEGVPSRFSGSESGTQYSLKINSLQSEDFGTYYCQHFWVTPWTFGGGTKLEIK
MEASURED: 6.9%

Value of measured proliferation inhibition (TNFα-induced Treg cell proliferation, against anti-Hel) for the entry TNFR2 antibody #001 (antibody, V domains shown, also called antibody #1) VH: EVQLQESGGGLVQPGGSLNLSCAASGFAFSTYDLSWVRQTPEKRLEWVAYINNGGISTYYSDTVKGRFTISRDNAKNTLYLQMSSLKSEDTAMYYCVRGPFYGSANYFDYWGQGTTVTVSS VL: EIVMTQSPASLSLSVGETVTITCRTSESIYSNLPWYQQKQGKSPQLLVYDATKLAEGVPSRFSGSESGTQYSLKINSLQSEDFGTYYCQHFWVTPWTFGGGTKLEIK : 17.1%
